Attribution: patent US20200062719A1

measurement-target: KDM5A (Homo sapiens, UniProt P29375)
Construct: magnetic beads were used to immunoprecipitate the respective enzymes from 10^8 cells; endogenous in cells
Sequence (P29375 whole entry): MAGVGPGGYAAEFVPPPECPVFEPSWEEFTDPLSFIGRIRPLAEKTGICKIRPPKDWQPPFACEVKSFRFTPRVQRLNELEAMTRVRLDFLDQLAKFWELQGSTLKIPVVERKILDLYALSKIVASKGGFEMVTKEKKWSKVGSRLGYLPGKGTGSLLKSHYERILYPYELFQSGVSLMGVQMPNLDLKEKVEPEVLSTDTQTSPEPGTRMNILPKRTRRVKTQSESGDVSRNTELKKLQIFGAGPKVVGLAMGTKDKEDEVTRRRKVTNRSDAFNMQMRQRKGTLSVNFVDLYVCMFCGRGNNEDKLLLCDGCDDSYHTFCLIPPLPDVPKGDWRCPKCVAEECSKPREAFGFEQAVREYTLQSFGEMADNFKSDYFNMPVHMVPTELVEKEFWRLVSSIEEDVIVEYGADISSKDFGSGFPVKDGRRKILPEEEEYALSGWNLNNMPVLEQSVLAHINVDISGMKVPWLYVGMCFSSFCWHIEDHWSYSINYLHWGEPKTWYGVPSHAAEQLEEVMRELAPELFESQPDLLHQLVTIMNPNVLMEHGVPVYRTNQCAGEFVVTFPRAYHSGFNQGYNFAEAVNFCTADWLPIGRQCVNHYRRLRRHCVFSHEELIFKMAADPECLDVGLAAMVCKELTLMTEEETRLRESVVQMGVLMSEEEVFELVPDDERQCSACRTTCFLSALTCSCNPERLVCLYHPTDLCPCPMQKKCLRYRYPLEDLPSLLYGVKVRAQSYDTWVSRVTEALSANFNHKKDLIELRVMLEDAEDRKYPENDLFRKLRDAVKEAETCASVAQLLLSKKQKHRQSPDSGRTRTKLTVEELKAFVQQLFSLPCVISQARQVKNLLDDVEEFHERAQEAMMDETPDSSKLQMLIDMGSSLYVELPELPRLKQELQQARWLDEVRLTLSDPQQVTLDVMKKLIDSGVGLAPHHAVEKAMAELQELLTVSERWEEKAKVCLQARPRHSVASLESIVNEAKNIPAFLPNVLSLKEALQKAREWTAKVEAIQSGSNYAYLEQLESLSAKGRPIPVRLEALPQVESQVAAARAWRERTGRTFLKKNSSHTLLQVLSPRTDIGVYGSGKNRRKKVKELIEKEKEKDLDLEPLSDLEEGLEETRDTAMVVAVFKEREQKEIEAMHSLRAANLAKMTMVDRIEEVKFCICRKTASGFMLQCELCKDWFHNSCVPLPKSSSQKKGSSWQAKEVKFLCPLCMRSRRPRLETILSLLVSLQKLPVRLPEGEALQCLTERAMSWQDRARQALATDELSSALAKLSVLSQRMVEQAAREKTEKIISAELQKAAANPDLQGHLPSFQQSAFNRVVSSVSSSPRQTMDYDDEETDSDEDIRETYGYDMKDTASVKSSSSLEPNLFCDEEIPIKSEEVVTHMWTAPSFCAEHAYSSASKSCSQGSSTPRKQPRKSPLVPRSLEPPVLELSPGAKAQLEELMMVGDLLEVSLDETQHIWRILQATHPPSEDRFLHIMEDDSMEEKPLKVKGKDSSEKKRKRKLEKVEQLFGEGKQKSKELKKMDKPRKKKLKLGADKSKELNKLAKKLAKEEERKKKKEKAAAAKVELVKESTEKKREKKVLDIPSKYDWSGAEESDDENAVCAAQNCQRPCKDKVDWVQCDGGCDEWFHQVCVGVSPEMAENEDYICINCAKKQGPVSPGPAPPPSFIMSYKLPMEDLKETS
method-notes: KDM5A inhibition, enzyme immunoprecipitated from cells
Type: biochemical
parameter-measured: IC50 (nM)
Give the number; nM is assumed, so skip it.

### Prompt Item Cc1ccc(-c2cn3cc(C)ccc3n2)cc1 [O4I3] has what recorded IC50?
### Response 0.19
